Target: β2-receptors (Canis lupus familiaris)
Construct: The lungs of mongrel dogs were separated from cartilaginous airways and major blood vessels; from tissue; host or cells: mongrel dog lung membranes
Test: BETA-2 binding, 125Iodocyanopindolol (ICYP), canine lung membranes
Parameters: species or system dog
Conditions: radioligand, Scatchard Analysis, Summary
readout-name: pKd
In simple prose, pKd is minus the logarithm base ten of a concentration in moles per litre.

Consider the molecule shown here: CC(C)(C)NCC(O)COc1cccc2[nH]c(C#N)c(I)c12 (stereo not shown) What is its recorded pKd? 11.05

----------
Biological target: β2-receptors (Canis lupus familiaris, UniProt P54833)
Construct: The lungs of mongrel dogs were separated from cartilaginous airways and major blood vessels; from tissue; host or cells: mongrel dog lung membranes
Sequence (P54833 whole entry): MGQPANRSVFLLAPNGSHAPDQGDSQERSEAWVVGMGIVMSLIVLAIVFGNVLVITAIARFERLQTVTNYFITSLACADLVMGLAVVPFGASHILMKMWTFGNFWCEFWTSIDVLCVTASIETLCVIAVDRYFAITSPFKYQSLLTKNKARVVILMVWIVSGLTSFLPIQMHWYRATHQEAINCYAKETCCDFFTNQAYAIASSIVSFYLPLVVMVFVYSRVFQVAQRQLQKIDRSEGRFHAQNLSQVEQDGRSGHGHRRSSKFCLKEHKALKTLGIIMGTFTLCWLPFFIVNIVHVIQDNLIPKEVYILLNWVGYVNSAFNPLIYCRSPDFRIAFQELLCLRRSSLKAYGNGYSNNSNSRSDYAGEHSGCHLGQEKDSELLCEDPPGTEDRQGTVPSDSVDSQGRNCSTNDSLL
Experiment: BETA-2 binding, 125Iodocyanopindolol (ICYP), canine lung membranes
Set-up: species or system dog
Details: radioligand, Saturation Analysis, Run 1
readout-name: pKd
pKd field: float, defined as -log10 of concentration (mol/L).

State the recorded pKd for this entry: CC(C)(C)NCC(O)COc1cccc2[nH]c(C#N)c(I)c12 (stereo not shown) [ICYP, iodocyanopindolol] 11.02
